# TARGET_OF_ASSAY: Recombinant human EIF2AK3 (PERK) catalytic domain (amino acids 536-1116) (Homo sapiens (Human))
# Sequence (Q9NZJ5 536-1116): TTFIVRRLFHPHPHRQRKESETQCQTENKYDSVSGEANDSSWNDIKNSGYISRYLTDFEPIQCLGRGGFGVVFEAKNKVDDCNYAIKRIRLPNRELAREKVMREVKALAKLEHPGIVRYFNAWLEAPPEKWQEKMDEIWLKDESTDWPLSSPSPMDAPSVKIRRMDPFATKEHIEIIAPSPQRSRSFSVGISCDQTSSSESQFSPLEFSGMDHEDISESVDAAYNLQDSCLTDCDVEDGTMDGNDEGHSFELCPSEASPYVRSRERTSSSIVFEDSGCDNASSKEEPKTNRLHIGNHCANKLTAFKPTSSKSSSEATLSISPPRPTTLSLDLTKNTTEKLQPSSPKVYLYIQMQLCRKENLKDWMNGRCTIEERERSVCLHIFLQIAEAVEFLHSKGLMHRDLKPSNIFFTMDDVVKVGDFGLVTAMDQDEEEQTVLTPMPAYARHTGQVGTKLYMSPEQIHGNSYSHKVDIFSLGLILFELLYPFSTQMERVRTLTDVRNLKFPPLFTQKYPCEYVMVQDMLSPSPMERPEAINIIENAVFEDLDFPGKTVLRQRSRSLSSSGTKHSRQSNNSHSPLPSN
# ASSAY_SUMMARY: PERK In Vitro Activity Assay (isolated), TR-FRET kinase assay
# CONDITION_INFO: isolated PERK enzyme, 1.5 μM ATP, read-out: Biochemical IC50
Can you tell me IC50 for the items I'm about to list?

**Query** Entry [2H]C([2H])([2H])c1nc(-c2cnc(NC(=O)C(O)c3cccc(F)c3)cc2C)c2c(N)nc(C)cn12 (stereo not shown) [Example 178] : reported IC50 = ?
**Result** 251 to 500 nM

**Query** // same read-out, input: [2H]C([2H])([2H])c1nc(-c2ccc(NC(=O)C(O)c3cccc(C(F)(F)F)c3)c(F)c2F)c2c(N)ncc(C)n12 (stereo not shown) [Example 147]
**Result** 26 to 50 nM

**Query** Follow-up item: [2H]C([2H])([2H])c1nc(-c2ccc(NC(=O)C(O)c3cccc(Cl)c3)cc2C)c2c(N)ncc(Cl)n12 (stereo not shown) [Example 43]
**Result** 1 to 25 nM

**Query** Then this compound: Cc1c(-c2nc(C)n3c(C)cnc(N)c23)ccc(NC(=O)C(O)c2cccc(F)c2)c1F (stereo not shown) [Example 168]
**Result** 1 to 25 nM

**Query** What about this compound? [2H]C([2H])([2H])c1nc(-c2ccc(NC(=O)C(O)c3cc(F)cc(F)c3)cc2C)c2c(N)ncc(C)n12 (stereo not shown) [Example 51]
**Result** 1 to 25 nM

**Query** Another compound to check: [2H]C([2H])([2H])c1nc(-c2ccc(NC(=O)C(O)c3cccc(F)c3)cc2C)c2c(N)nc(C)cn12 (stereo not shown)
**Result** 1 to 25 nM

**Query** Also, [2H]C([2H])([2H])c1nc(-c2ccc(NC(=O)C(O)c3cc(F)cc(F)c3)c(F)c2F)c2c(N)ncc(C)n12 (stereo not shown) [Example 155] please.
**Result** 1 to 25 nM

**Query** Now the same for [2H]C([2H])([2H])c1nc(-c2ccc(NC(=O)C(O)c3cc(F)cc(C(F)(F)F)c3)cc2F)c2c(N)ncc(C)n12 (stereo not shown) [Example 111]
**Result** 1 to 25 nM

**Query** [2H]C([2H])([2H])c1nc(-c2ccc(NC(=O)C(O)c3cccc(F)c3)cc2C)c2c(N)ncc(C(F)(F)F)n12 (stereo not shown) [Example 31] , same question.
**Result** 1 to 25 nM

**Query** And what about the compound Cc1cc(NC(=O)C(O)c2cccc(F)c2)ccc1-c1nc(C)n2ccnc(N)c12 (stereo not shown) [Example 1] ?
**Result** 1 to 25 nM
